System: HH
ASSAY PROCEDURE: cells
Format: functional, cell-based
APPLIED CONDITIONS: Homo sapiens
Description: SANGER: Inhibition of human HH cell growth in a cell viability assay.
pIC50: −log10 of the molar value.
OBSERVABLE: pIC50

The following compounds have reported results that may help.
CN1CCN(CCOc2cc(OC3CCOCC3)c3c(Nc4c(Cl)ccc5c4OCO5)ncnc3c2)CC1 ... < 5.70
Cc1cc(Nc2cc(N3CCN(C)CC3)nc(Sc3ccc(NC(=O)C4CC4)cc3)n2)n[nH]1 ... < 5.70
CCc1nc(N)nc(N)c1-c1ccc(Cl)cc1 ... < 4.70

Query block: Find the recorded pIC50 belonging to "CC(=O)O[C@@H]1[C@@H](OC(C)=O)[C@@H](O)[C@H](Oc2c(-c3ccc(O)cc3)oc3cc(O)cc(O)c3c2=O)O[C@H]1C" and report it.
Result block: < 5.00

###

Test system: RCM-1;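 also: growth inhibition of the RCM-1 line, determined with a cell viability readout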
ASSAY PROCEDURE: cells
Format: functional, cell-based, Homo sapiens
APPLIED CONDITIONS: rcm-1
Description: SANGER: Inhibition of human RCM-1 cell growth in a cell viability assay.
pIC50: −log10 of the molar value.
OBSERVABLE: pIC50

Query block: pIC50 lookup needed for "Cc1cc([C@@H](C)Nc2ccccc2C(=O)O)c2nc(N3CCOCC3)cc(=O)n2c1" , thanks.
Result block: < 5.29

###

System: COR-L279
ASSAY PROCEDURE: SANGER: Inhibition of human COR-L279 cell growth in a cell viability assay.
Type: functional, cell-based
OBSERVABLE: IC50

Completed entries (count: 4):
Cc1cc(Nc2cc(N3CCN(C)CC3)nc(Sc3ccc(NC(=O)C4CC4)cc3)n2)n[nH]1 ... > 2 µM
O=C(/C=C/c1ccccc1)NC(NC(=S)Nc1cccc2cccnc12)C(Cl)(Cl)Cl (stereo not given) ... > 16 µM
CCC1=C[C@@H]2CN(C1)Cc1c([nH]c3ccccc13)[C@@](C(=O)OC)(c1cc3c(cc1OC)N(C)[C@H]1[C@@](O)(C(=O)OC)[C@H](OC(C)=O)[C@]4(CC)C=CCN5CC[C@]31[C@@H]54)C2 ... > 0.064 µM
COc1cc([C@@H]2c3cc4c(cc3[C@@H](O[C@@H]3O[C@@H]5CO[C@@H](C)O[C@H]5[C@H](O)[C@H]3O)[C@H]3COC(=O)[C@H]23)OCO4)cc(OC)c1O [ETOPOSIDE] ... 1.27 µM

Continue with the next molecule.
Query block: What does the data say about its IC50? Entry: "CNC(=O)c1cc(Oc2ccc(NC(=O)Nc3ccc(Cl)c(C(F)(F)F)c3)cc2)ccn1"
Result block: > 4 µM

###

What pIC50 was measured for each of the following?
Test system: NCI-H1155
ASSAY PROCEDURE: cells
Assay type: functional, cell-based
APPLIED CONDITIONS: Homo sapiens
Description: SANGER: Inhibition of human NCI-H1155 cell growth in a cell viability assay.
pIC50: −log10 of the molar value.

Some compounds with recorded pIC50:
C[C@]1(O)C[C@@H](c2nc(-c3ccc4ccc(-c5ccccc5)nc4c3)c3c(N)nccn32)C1 [LINSITINIB] ... < 5.59
O=C(c1cc(Cc2n[nH]c(=O)c3ccccc23)ccc1F)N1CCN(C(=O)C2CC2)CC1 [OLAPARIB] ... < 5.30

Report pIC50 for every entry below.
1. CCOc1nc(NC(=O)Cc2cc(OC)ccc2OC)cc(N)c1C#N
2. CS(=O)(=O)CCNCc1ccc(-c2ccc3ncnc(Nc4ccc(OCc5cccc(F)c5)c(Cl)c4)c3c2)o1 [LAPATINIB]
3. C=CCNC1=C2C[C@@H](C)C[C@H](OC)[C@H](O)[C@@H](C)/C=C(\C)[C@H](OC(N)=O)[C@@H](OC)/C=C\C=C(/C)C(=O)NC(=CC1=O)C2=O [TANESPIMYCIN]
4. Cc1cc(Nc2cc(N3CCN(C)CC3)nc(Sc3ccc(NC(=O)C4CC4)cc3)n2)n[nH]1 [TOZASERTIB]

Result block:
["< 5.00", "< 5.70", 6.58, "< 5.70"]

Okay, here is my list. What is pIC50 for each of these?
1. COC(=O)CNC(=O)C(=O)OC
2. CN1CCN(CCOc2cc(OC3CCOCC3)c3c(Nc4c(Cl)ccc5c4OCO5)ncnc3c2)CC1 [SARACATINIB]
3. CN(C)C/C=C/C(=O)Nc1cc2c(Nc3ccc(F)c(Cl)c3)ncnc2cc1O[C@H]1CCOC1 [AFATINIB]
4. C=CCc1cccc(/C=N/NC(=O)CN2CCN(Cc3ccccc3)CC2)c1O [PAC-1]
5. CCc1nc(N)nc(N)c1-c1ccc(Cl)cc1 [PYRIMETHAMINE]
6. CC(=O)O[C@@H]1[C@@H](OC(C)=O)[C@@H](O)[C@H](Oc2c(-c3ccc(O)cc3)oc3cc(O)cc(O)c3c2=O)O[C@H]1C

Result block:
[2.81, "< 5.70", "< 6.30", "< 5.59", "< 4.70", "< 5.00"]

Query block: Which pIC50 is reported for this compound? COc1cc([C@@H]2c3cc4c(cc3[C@@H](O[C@@H]3O[C@@H]5CO[C@@H](C)O[C@H]5[C@H](O)[C@H]3O)[C@H]3COC(=O)[C@H]23)OCO4)cc(OC)c1O [ETOPOSIDE]
Result block: 4.96

###

Test system: P12-Ichikawa
ASSAY PROCEDURE: cells
Assay type: functional, cell-based
APPLIED CONDITIONS: Homo sapiens
Record form. Attribute: IC50. Fill in for each entry.

C=CCNC1=C2C[C@@H](C)C[C@H](OC)[C@H](O)[C@@H](C)/C=C(\C)[C@H](OC(N)=O)[C@@H](OC)/C=C\C=C(/C)C(=O)NC(=CC1=O)C2=O ... > 1 µM
C=CCc1cccc(/C=N/NC(=O)CN2CCN(Cc3ccccc3)CC2)c1O ... > 2.56 µM
O=C(c1cc(Cc2n[nH]c(=O)c3ccccc23)ccc1F)N1CCN(C(=O)C2CC2)CC1 ... > 5 µM
Cc1cnc(-c2cnc(NCCNc3ccc(C#N)cn3)nc2-c2ccc(Cl)cc2Cl)[nH]1 ... > 2.56 µM

Turning to the following compound.
Query block: // query IC50 value for entry "CN(C)C/C=C/C(=O)Nc1cc2c(Nc3ccc(F)c(Cl)c3)ncnc2cc1O[C@H]1CCOC1"
Result block: > 0.5 µM

###

Tested on: LB1047-RCC
ASSAY PROCEDURE: cells
Format: functional, cell-based, Homo sapiens
APPLIED CONDITIONS: Homo sapiens, LB1047-RCC
Description: SANGER: Inhibition of human LB1047-RCC cell growth in a cell viability assay.
pIC50: −log10 of the molar value.
I'd be grateful if you could share measured pIC50 for these entries.

I need pIC50 for every entry listed below, if you could help.
1. CN(c1ncccc1CNc1nc(Nc2ccc3c(c2)CC(=O)N3)ncc1C(F)(F)F)S(C)(=O)=O
2. Cc1cc([C@@H](C)Nc2ccccc2C(=O)O)c2nc(N3CCOCC3)cc(=O)n2c1
3. C=CCNC1=C2C[C@@H](C)C[C@H](OC)[C@H](O)[C@@H](C)/C=C(\C)[C@H](OC(N)=O)[C@@H](OC)/C=C\C=C(/C)C(=O)NC(=CC1=O)C2=O

Result block:
1: < 5.59; 2: < 5.29; 3: 7.28

For each of the compounds below, note its pIC50.
1. C[C@]1(O)C[C@@H](c2nc(-c3ccc4ccc(-c5ccccc5)nc4c3)c3c(N)nccn32)C1
2. CNC(=O)c1cc(Oc2ccc(NC(=O)Nc3ccc(Cl)c(C(F)(F)F)c3)cc2)ccn1
3. O=C(NOCC1CC1)c1ccc(F)c(F)c1Nc1ccc(I)cc1Cl

Result block:
["< 5.59", "< 5.40", 5.32]

Hi there! I need pIC50 for each item below, if you can.
1. CCc1nc(N)nc(N)c1-c1ccc(Cl)cc1
2. COC(=O)CNC(=O)C(=O)OC

Result block:
< 4.70
4.30

###

Please provide measured IC50 for the entries that follow.
Tested on: FaDu;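 also: cell viability readout of growth inhibition in FaDu cells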
ASSAY PROCEDURE: cells
Format: functional, cell-based, Homo sapiens
APPLIED CONDITIONS: Homo sapiens, FaDu
Description: SANGER: Inhibition of human FADU cell growth in a cell viability assay.

Please review the following examples before continuing.
O=C1N=C(NCc2cccs2)S/C1=C\c1ccc2ncccc2c1 ... > 5000 nM
COc1cc([C@@H]2c3cc4c(cc3[C@@H](O[C@@H]3O[C@@H]5CO[C@@H](C)O[C@H]5[C@H](O)[C@H]3O)[C@H]3COC(=O)[C@H]23)OCO4)cc(OC)c1O [ETOPOSIDE] ... 1280 nM
COc1ccc(-c2ccc3c(N4CCOC[C@@H]4C)nc(N4CCOC[C@@H]4C)nc3n2)cc1CO ... > 2000 nM

For the next question, use this compound.
Query block: Give its IC50 value. Item: CN(Cc1cnc2nc(N)nc(N)c2n1)c1ccc(C(=O)N[C@@H](CCC(=O)O)C(=O)O)cc1 [METHOTREXATE]
Result block: > 200 nM

###

Tested on: KYSE-520 cell line;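 also: growth inhibition of human KYSE-520 cells, read out with a viability assay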
ASSAY PROCEDURE: cells
Type: functional, cell-based, Homo sapiens
APPLIED CONDITIONS: Homo sapiens, KYSE-520
Description: SANGER: Inhibition of human KYSE-520 cell growth in a cell viability assay.
pIC50: −log10 of the molar value.
What pIC50 was measured for each of the following?

Dear colleague, could you send me pIC50 for each of the items below? Thanks.
1. COc1ccc(-c2ccc3c(N4CCOC[C@@H]4C)nc(N4CCOC[C@@H]4C)nc3n2)cc1CO
2. COc1cc(F)c(F)c(Nc2ccc(I)cc2F)c1NS(=O)(=O)C1(CC(O)CO)CC1 (stereo not drawn)
3. C=CCc1cccc(/C=N/NC(=O)CN2CCN(Cc3ccccc3)CC2)c1O
4. O=C1N=C(NCc2cccs2)S/C1=C\c1ccc2ncccc2c1
5. CCC1=C[C@@H]2CN(C1)Cc1c([nH]c3ccccc13)[C@@](C(=O)OC)(c1cc3c(cc1OC)N(C)[C@H]1[C@@](O)(C(=O)OC)[C@H](OC(C)=O)[C@]4(CC)C=CCN5CC[C@]31[C@@H]54)C2
6. CCOc1nc(NC(=O)Cc2cc(OC)ccc2OC)cc(N)c1C#N
7. O=c1cc(-c2cccc3c2Sc2ccccc2S3)oc(N2CCOCC2)c1

Result block:
["< 5.70", 5.53, "< 5.59", "< 5.30", 7.75, "< 5.00", "< 5.00"]

Query block: Name the recorded pIC50 for "O=C(NOCC1CC1)c1ccc(F)c(F)c1Nc1ccc(I)cc1Cl" .
Result block: < 5.00
